- PROCEDURE TEXT: NCI Yeast Anticancer Drug Screen. Data for the mec2-1 strain (AID 157)
- CONDITION INFO: S. cerevisiae mec2-1 strain, at 100.0 µM
- Description: Growth inhibition of yeast strains with defined genetic alterations is measured as a screen for potential anti-cancer activity. Selected strains with alterations in DNA damage repair or cell cycle control were exposed to compounds and growth inhibition was measured relative to vehicle treated controls. The strain used in this assay is mec2-1
Compounds without any hit were thinned out: in the full panel of roughly 79,000, 15% have a hit. Active and inactive are the calls of the source. No stated cut-off is given here; in the data, active means growth inhibition above about 70%; inactive means the rest.
The reply should name one outcome from t (active), f (inactive)

A selection of reference data follows.
C[CH2][Sn]([CH2]C)([O]S(C)(=O)=O)[O]S(C)(=O)=O    f
CC(=O)[O-].O=C([CH-]C(=O)c1ccccc1)c1ccccc1.O=C([CH-]C(=O)c1ccccc1)c1ccccc1.[Sm+3]    t
C=C[C@H]1CN2CC[C@H]1C[C@@H]2[C@@H](O)c1ccnc2ccccc12    f

Qu. Called result for O=c1oc2ccccc2c(O)c1C(c1ccc2c(c1)Cc1ccccc1-2)c1c(O)c2ccccc2oc1=O
Ans. t

Qu. Field: outcome | Entry: CC12CCC(C1)C(C)(C)C2OC(=O)c1ccccc1N (stereo not given)
Ans. f
